// data source = the RNAGym collection of RNA variant scans (doi:10.7554/elife.90254)

B1: LINE1-full (parent)
chain: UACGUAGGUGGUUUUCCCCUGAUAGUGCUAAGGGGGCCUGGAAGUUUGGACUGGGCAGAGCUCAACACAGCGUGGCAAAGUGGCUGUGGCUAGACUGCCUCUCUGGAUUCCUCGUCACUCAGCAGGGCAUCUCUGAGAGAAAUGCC

Variants of: B1
Test: self-cleavage, relative activity (ratio to wild type); higher = more cleavage; in vitro, sequencing; the parent is a self-cleaving ribozyme
Reported self-cleavage values for the following variants.
Answer with a number only.

Worked set:
{"sequence.string": "UACGUAGGUGGUUUUCCCCUGAUAGUGCUAAGGGGGCCUGGAAGUUUGGACUGGGCAGAGCUCAACACAGCGUGGCAAAGUGGCUGAGGCUAGACUGCCUCUCUGGAUUCCUCGUCACGCAGCAGGGCAUCUCUGAGAGAAAUGCC", "self-cleavage": 0.07}
{"sequence.string": "UACGUAGGUGGUUUUCCCCUGAUAGUGCUAAGGGGGCCUGGUAGUUUGGACAGGGCAGAGCUCAACACAGCGUGGCAAAGUGGCUGUGGCUAGACUGCCUCUCUGGAUUCCUCGUCACUCAGCAGGGCAUCUCUGAGAGAAAUGCC", "self-cleavage": 1.2}
{"sequence.string": "UACGUAGGUGGUUUUCCCCUGAUAGUGCUAAGGCGGCCUGGAAGUUUGGACUGGGCAGAGCUCAACACAGCGUGGCAAAGUGGCUGUGGCUAGACUGCCUCUCUGGAUUCCUCGUCACUCAGCAGGGCAUCUCUGAGAGCAAUGCC", "self-cleavage": 1.79}
{"sequence.string": "UACGUAGGUGGUUUUCCCCUGAUAGUGCUAAGGGGGCCUGGAAGUUUGGACAGGGCAGAGCUCAACACAGCGUGGCAAAGUGGCUGUGGCUAGACUGCCUCUCUGGAUUUCUCGUCACUCAGCAGGGCAUCUCUGAGAGAAAUGCC", "self-cleavage": 1.23}
{"sequence.string": "UACGUAGGUGGAUUACCCCUGAUAGUGCUAAGGGGGCCUGGAAGUUUGGACUGGGCAGAGCUCAACACAGCGUGGCAAAGUGGCUGUGGCUAGACUGCCUCUCUGGAUUCCUCGUCACUCAGCAGGGCAUCUCUGAGAGAAAUGCC", "self-cleavage": 0.95}
{"sequence.string": "UACGUAGGUGGUUUUCCCCUGAUAGUGCUAAGGGGGCCUGGAAGUUUGGACUGGGCAGAGCUCGACACAGCGGGGCAAAGUGGCUGUGGCUAGACUGCCUCUCUGGAUUCCUCGUCACUCAGCAGGGCAUCUCUGAGAGAAAUGCC", "self-cleavage": 0.15}

Could you share which self-cleavage value was measured for UACGUAGGUGGUUUUCCCCUGAUAGUGCUAAGGGGGCCUGGAAGUUUGGACUGGGCAGAGCUCAUCACAGCGUGGCAAAGUGGCUGUGGCUAGACUGCCUCUCUGGAUUCCUCGUCACUCAGCAGGGCAUCUCUGAGAGUAAUGCC ?
0.1

Could you share which self-cleavage value was measured for UACGUAGGUGGUUUUCCCCUGAUAGUGCUAAGGGGGCCUGGAAGUUUGGACUGGGCAGAGCUCAACACGGCGUGGCAAAGUGGCUGUGGCUAGACUGCCUCUCUGGAUUCCUCGUCGCUCAGCAGGGCAUCUCUGAGAGAAAUGCC ?
0.5

Could you share which self-cleavage value was measured for UACGUAGGUGGUUUUCCCCUGAUAGUGCUAAGGGGGCCUGGAAGUUUGGACUGGGCUGAGCGCAACACAGCGUGGCAAAGUGGCUGUGGCUAGACUGCCUCUCUGGAUUCCUCGUCACUCAGCAGGGCAUCUCUGAGAGAAAUGCC ?
0

Could you share which self-cleavage value was measured for UACGUAGGUGGUUUUCCCCUGAUAGCGCUAAGGGGGCCUGGAAGUUUGGACUGAGCAGAGCUCAACACAGCGUGGCAAAGUGGCUGUGGCUAGACUGCCUCUCUGGAUUCCUCGUCACUCAGCAGGGCAUCUCUGAGAGAAAUGCC ?
0.6

Could you share which self-cleavage value was measured for UACGUAGGUGGUUUUCCCCUGGUAGUGCAAAGGGGGCCUGGAAGUUUGGACUGGGCAGAGCUCAACACAGCGUGGCAAAGUGGCUGUGGCUAGACUGCCUCUCUGGAUUCCUCGUCACUCAGCAGGGCAUCUCUGAGAGAAAUGCC ?
1.24

Could you share which self-cleavage value was measured for UACGUAGGUGGUUUUCCCCUGAUAGUGCUAAGGGGGCCUGGAAGUUUGGACUGGGCAGAGCUCAACACAGCGUGGCAAAGUGGCUGUGGCUAGUCUGCCUCUCCGGAUUCCUCGUCACUCAGCAGGGCAUCUCUGAGAGAAAUGCC ?
0.55
